Consider the following compounds; for each one, report its growth.
test system: HOP-92 NSCLC; assay: NCI-60 one-dose screen, 48 h (100 = growth as untreated, 0 = no growth, -100 = all killed); conditions: 10 µM unless noted
About 83,000 compounds went through this panel and 20% of them were active in at least one assay; those are over-represented in the sample as a whole. Calls of active or inactive are those of the source. Rule for the calls: active = growth percent below 10; inactive = the rest.

The following compounds have reported results that may help.
{"columns": ["COMPOUND", "growth"],
 "data": [
  ["CC1=C([Se]CC(OC(=O)CC[Se]c2ccccc2)C(=O)NCCCCCC(=O)OCc2ccccc2)C(=O)c2ccccc2C1=O (centres undefined)", "-5.98% (active)"],
  ["N#Cc1c(N)nn(C(=O)c2ccc(NC(=O)c3ccccn3)cc2)c1-c1ccc(Cl)cc1", "7.04% (active)"],
  ["Cc1ccc(C2SCC(=O)N2Cc2ccccc2)cc1 (centres undefined)", "81.7% (inactive)"]
]}

Dear colleague, could you send me growth for each of the items below? Thanks.
1. NC(=S)N/N=C/Cc1ccccc1
2. CCOC(=O)c1c(-c2ccc(Cl)cc2)c(C#N)c(=O)n(-c2ccccc2CC)c1N
3. COc1cc2c(cc1-c1c(C)noc1C)ncc1nc(C3CCCCC3)n(C3CCC(OC(F)F)CC3)c12 (centres undefined)
4. COc1cccc(Nc2nccc(Nc3ccc4[nH]ncc4c3)n2)c1
5. Cc1ccc(/C=C/c2c(C(=O)/C=C/c3ccc(Cl)cc3)c(C)nc3ccccc23)cc1
6. CC(=O)c1ccc(NCC(=O)Nc2ccccn2)cc1
7. O=C(c1ccc(Nc2nccc(NCCCCNc3ccnc4cc(Cl)ccc34)n2)cc1)N1CCCCC1

Result:
109% (inactive)
65.9% (inactive)
1.82% (active)
-11.2% (active)
0.669% (active)
103% (inactive)
59.2% (inactive)

Dear colleague, could you send me growth for each of the items below? Thanks.
1. COc1cccc(-c2nc3sccn3c2-c2ccnc(NCCNS(=O)(=O)c3ccc(C(F)(F)F)cc3)c2)c1
2. COc1nc(N(C)O)nc(N(C)O)n1
3. COC(=O)[C@]12CC[C@@H](C)[C@H](C)[C@@H]1C1=CC[C@@H]3[C@@]4(C)C(C=O)=C[C@@](C)(CO)[C@@H]4[C@H](O)C[C@@]3(C)[C@]1(C)CC2
4. CCOC(=O)/C=C/c1cc2cc(-c3csc4ccccc34)ccc2[nH]1

Result:
34.4% (inactive)
52.8% (inactive)
-22.8% (active)
99.7% (inactive)
